- subjectOfTest: T1, CFTR10 (Homo sapiens)
- T1 chain: TEEEVQDTRL
- assayNotes: fluorescence polarization competition
observationType: pKi
A value of pKi is the negative decimal logarithm of a concentration given in moles per litre.

Form field pKi, entry NHERF1 PDZ2 (protein) RPRLCTMKKGPSGYGFNLHSDKSKPGQFIRSVDPDSPAEASGLRAQDRIVEVNGVCMEGKQHGDVVSAIRAGGDETKLLVVDRETDE : 5.72

Briefly, pKi measured for NHERF1 PDZ1 (protein) LPRLCCLEKGPNGYGFHLHGEKGKLGQYIRLVEPGSPAEKAGLLAGDRLVEVNGENVEKETHQQVVSRIRAALNAVRLLVVDPETDE : 6.35

In plain terms, NHERF2 PDZ1 (protein) RPRLCRLVRGEQGYGFHLHGEKGRRGQFIRRVEPGSPAEAAALRAGDRLVEVNGVNVEGETHHQVVQRIKAVEGQTRLLVVDQETD has a documented pKi of 5.96

Looking up NHERF2 PDZ2 (protein) LRPRLCHLRKGPQGYGFNLHSDKSRPGQYIRSVDPGSPAARSGLRAQDRLIEVNGQNVEGLRHAEVVASIKAREDEARLLVVDPETD , I see its pKi listed as 7.00
